Origin of the recorded values: patent US4999372A

Tested on: aorta of the rat
Assay: Relaxation of rat aortic rings contracted by potassium depolarisation (KCl)
Type: cell-based
Conditions: Rattus norvegicus, rat aorta rings without endothelium, 30 mM KCl; read-out: IC50 (M) KCl 30 mM
MEASUREMENT NAME: IC50 (M)

I. COC[C@@H]1CCC(=O)N1C1c2cc(C#N)ccc2OC(C)(C)C1O (single isomer, unassigned) [Example 2 form A]
II. CC1(C)Oc2ccc(C#N)cc2[C@@H](N2CCCC2=O)[C@@H]1O (relative stereo) [CROMAKALIM, reference compound]
### Prompt Which gives the smaller IC50 number: I or II ? State the label of the item chosen.
### Response I
(I: 2.8e-07 M, II: 4.2e-07 M)
